measured-on: T1, Full-length cynomolgus monkey TIGIT on CHO-K1 cells (CHO-K1 cynomolgus monkey TIGIT) (cynomolgus monkey)
T1 construct: NCBI XP_015300911.1
protocol-details: cell binding, CHO-K1 cynomolgus monkey TIGIT
property-label: EC50 (nM)
# output: bare number, implied unit nM

TIGIT-CHI-005 (antibody, V domains shown, Human-mouse chimeric antibody) VH: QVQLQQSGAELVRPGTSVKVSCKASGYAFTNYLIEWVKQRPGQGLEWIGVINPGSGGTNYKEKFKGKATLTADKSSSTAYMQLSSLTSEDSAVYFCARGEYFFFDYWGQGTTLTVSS VL: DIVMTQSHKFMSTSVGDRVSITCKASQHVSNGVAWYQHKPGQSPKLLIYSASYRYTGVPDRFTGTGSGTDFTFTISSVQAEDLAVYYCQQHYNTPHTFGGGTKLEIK; 0.0265
TIGIT-070-H3L1 (antibody, V domains shown, Humanized anti-TIGIT antibody) VH: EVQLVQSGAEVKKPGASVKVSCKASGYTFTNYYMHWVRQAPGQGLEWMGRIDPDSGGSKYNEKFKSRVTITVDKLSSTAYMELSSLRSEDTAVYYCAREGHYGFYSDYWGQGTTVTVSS VL: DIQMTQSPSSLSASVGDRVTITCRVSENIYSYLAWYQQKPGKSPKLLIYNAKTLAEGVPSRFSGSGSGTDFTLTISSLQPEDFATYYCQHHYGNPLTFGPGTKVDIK; 0.0741
TIGIT-002-H3L1 (antibody, V domains shown, Humanized anti-TIGIT antibody) VH: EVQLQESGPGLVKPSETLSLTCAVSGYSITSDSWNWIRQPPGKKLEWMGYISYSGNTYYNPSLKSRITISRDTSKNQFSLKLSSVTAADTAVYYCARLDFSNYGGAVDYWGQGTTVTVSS VL: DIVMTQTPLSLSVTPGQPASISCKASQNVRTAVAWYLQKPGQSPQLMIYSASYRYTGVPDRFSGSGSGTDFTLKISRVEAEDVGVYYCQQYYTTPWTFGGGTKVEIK; 0.232
TIGIT-CHI-006 (antibody, V domains shown, Human-mouse chimeric antibody) VH: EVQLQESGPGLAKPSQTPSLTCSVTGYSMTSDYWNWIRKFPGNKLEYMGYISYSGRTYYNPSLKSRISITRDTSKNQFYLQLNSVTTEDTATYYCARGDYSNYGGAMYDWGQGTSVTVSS VL: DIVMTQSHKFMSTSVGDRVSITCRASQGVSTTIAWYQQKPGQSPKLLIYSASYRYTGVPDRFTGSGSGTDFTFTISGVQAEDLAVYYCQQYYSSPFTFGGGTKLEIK; 0.15

From here, focus on the item given below.
Ask: I am curious: what EC50 value has been reported for TIGIT-CHI-070 (antibody, V domains shown, Human-mouse chimeric antibody) VH: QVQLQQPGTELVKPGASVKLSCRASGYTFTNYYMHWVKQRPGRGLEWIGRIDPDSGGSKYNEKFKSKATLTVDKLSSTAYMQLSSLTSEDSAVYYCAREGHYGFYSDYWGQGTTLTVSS VL: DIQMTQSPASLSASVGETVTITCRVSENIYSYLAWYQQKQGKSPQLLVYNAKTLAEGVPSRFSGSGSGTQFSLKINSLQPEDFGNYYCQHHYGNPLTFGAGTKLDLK ?
Reply: 0.0741
